# credit: PubChem BioAssay (NCI)

# experimentNotes: NCI Yeast Anticancer Drug Screen. Data for the cln2 rad14 strain (AID 165);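 note: 0% = growth equal to vehicle treated cultures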
# conditionsUsed: S. cerevisiae cln2 rad14 strain, at 50.0 µM (retest, dose inferred, filed as 5.0)
This is part of a sample that, as a whole, favours compounds with a hit. Of some 79,000 tested, about 15% had one in any assay. Calls of active or inactive are those of the source. Cut-off read from the data, not from the text of the source: active = growth inhibition above about 70%; inactive = the rest.
Answer with one of the outcomes given here: true (1) for active, false (0) for inactive

Incoming: Please let me know the test result on file for O=C(O/N=C(/Cc1ccccc1)c1ccccc1)c1ccccc1 .
Outgoing: true (1)

Incoming: Please let me know the test result on file for COC(=O)c1ccccc1C=C(c1ccc([N+](=O)[O-])cc1)c1ccc([N+](=O)[O-])cc1 .
Outgoing: true (1)

Incoming: Please let me know the test result on file for C=CCOC(=O)C(O)C(CC)CCCCC (stereo not drawn) .
Outgoing: false (0)

Incoming: Please let me know the test result on file for C[n+]1c(/C=C\c2ccccc2)sc2ccccc21 .
Outgoing: true (1)

Incoming: Please let me know the test result on file for O=c1c2ccccc2sc2c1c(N(CCO)CCO)cc1ccccc12 .
Outgoing: true (1)

Incoming: Please let me know the test result on file for O=C1c2ccccc2-c2cc(S)c([N+](=O)[O-])cc21 .
Outgoing: false (0)

Incoming: Please let me know the test result on file for O=[N+]([O-])c1ccc(/C=c2\sc3scc(-c4ccc([N+](=O)[O-])cc4)[n+]3\c2=C/c2ccc([N+](=O)[O-])cc2)cc1 .
Outgoing: true (1)

Incoming: Please let me know the test result on file for CN(C)CCN(C)N=Nc1c(-c2cccs2)n[nH]c1C(F)(F)F .
Outgoing: true (1)

Incoming: Please let me know the test result on file for Cc1ccc(C)c(N2C/C(=N\NC(=O)CC#N)C(c3nc4ccccc4s3)C(=O)C2=O)c1 (stereo not drawn) .
Outgoing: false (0)

Incoming: Please let me know the test result on file for O=C1OC2(CCN(Cc3ccccc3)CC2)C(=O)N1c1cccc(Cl)c1 .
Outgoing: false (0)

Incoming: Please let me know the test result on file for CCCCCC/C=C/C#CCCCCCCCC(=O)O .
Outgoing: false (0)

Incoming: Please let me know the test result on file for NC1C(=O)C2CCCCC2C(=O)C1C(=O)c1ccccc1 (stereo not drawn) .
Outgoing: false (0)

Incoming: Please let me know the test result on file for CC(O)CCCOC(c1ccccc1)(c1ccccc1)c1ccccc1 (stereo not drawn) .
Outgoing: true (1)

Incoming: Please let me know the test result on file for O=S(=O)(Nc1cccc(C2=NCCN2)c1)c1ccc2c(S(=O)(=O)Nc3cccc(C4=NCCN4)c3)cccc2c1 .
Outgoing: false (0)

Incoming: Please let me know the test result on file for Cc1cc2nc3ccc(N(C)C)cc3nc2cc1N .
Outgoing: true (1)

Incoming: Please let me know the test result on file for CC(CN(C)C)C(=O)c1cn(C)c2ccccc12 (stereo not drawn) .
Outgoing: false (0)

Incoming: Please let me know the test result on file for O=C1NC(=S)S/C1=C\c1cc(Cl)ccc1O .
Outgoing: false (0)

Incoming: Please let me know the test result on file for Cc1ccc(C(CN(C)C)C(=O)c2ccccc2)cc1C (stereo not drawn) .
Outgoing: false (0)

Incoming: Please let me know the test result on file for c1ccc(CCN(Cc2nc3ccccc3[nH]2)Cc2nc3ccccc3[nH]2)cc1 .
Outgoing: true (1)

Incoming: Please let me know the test result on file for Cc1ccc(/C=N\NC(=S)N/N=C/c2ccc(C)cc2)cc1 .
Outgoing: true (1)

Incoming: Please let me know the test result on file for CC1(C)C2CCC(C2)C1OC(=O)c1ccccc1C(=O)O (stereo not drawn) .
Outgoing: false (0)

Incoming: Please let me know the test result on file for Cc1ccc2nc(-c3ccc(N)cc3)sc2c1 .
Outgoing: false (0)

Incoming: Please let me know the test result on file for CSC(=S)n1nc(-c2cccs2)c(N=Nc2ccc(Cl)cc2)c1C(F)(F)F .
Outgoing: false (0)

---

# experimentNotes: NCI Yeast Anticancer Drug Screen. Data for the sgs1 mgt1 strain (AID 161);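 note: 0% = growth of cultures given vehicle only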
# conditionsUsed: S. cerevisiae sgs1 mgt1 strain, at 50.0 µM
About 79,000 compounds went through this panel and 15% of them were active in at least one assay; those are over-represented in the sample as a whole. Activity calls are given as the source filed them. Rule as the data show it: active = growth inhibition above about 70%; inactive = the rest.
Answer with one of the outcomes given here: Yes = active, No = inactive

These recorded examples may help you get a feel for the data.
ICCCCCCCCCC[n+]1ccc2ccccc2c1	Yes
Cc1ccc(S(=O)(=O)N/N=C(\C=C\c2ccccc2)c2ccccc2)cc1	No
CN(C)c1cc2c(cc1[N+](=O)[O-])-c1ccccc1C2O (stereo unspecified)	No
C[n+]1c2ccc(Cl)cc2nc2cc(-c3ccccc3)ccc21	Yes
O=C(/C=C/c1ccc(Cl)c(Cl)c1)CCN1CCN(CCC(=O)/C=C/c2ccc(Cl)c(Cl)c2)CC1	Yes

Now turn to the next compound.
Incoming: Please let me know the test result on file for CCOC(=O)c1cc2c(nc1NCc1ccc(OC)c(OC)c1)/C(=C/c1ccccc1)CCCC2 .
Outgoing: Yes

---

# experimentNotes: NCI Yeast Anticancer Drug Screen. Data for the bub3 strain (AID 167)
# conditionsUsed: S. cerevisiae bub3 mutant strain, at 50.0 µM (retest, dose inferred, filed as 5.0)
# Method: Growth inhibition of yeast strains with defined genetic alterations is measured as a screen for potential anti-cancer activity. Selected strains with alterations in DNA damage repair or cell cycle control were exposed to compounds and growth inhibition was measured relative to vehicle treated controls. The strain used in this assay is bub3
Compounds without any hit were thinned out: in the full panel of roughly 79,000, 15% have a hit. Active and inactive are the calls of the source. Rule as the data show it: active = growth inhibition above about 70%; inactive = the rest.
Answer with one of the outcomes given here: active, inactive

These recorded examples may help you get a feel for the data.
CCNC(=S)N/N=C(\C)c1cccc(C)n1	inactive
O=[N+]([O-])c1ccc2c(c1)[n+]([O-])c1[nH]c3ccccc3c1[n+]2[O-] (tested in a mixture with another compound)	active
COc1ccc(/C=C2\N=C(c3ccco3)OC2=O)cc1Br	inactive
O=C(c1ccccc1)C1Cc2ccccc2C1=O (centres undefined)	inactive
O=S1Nc2ccccc2S1 (centres undefined)	active

Incoming: Please let me know the test result on file for S=c1sc2nc(Cl)nc(Cl)c2s1 .
Outgoing: active

Incoming: Please let me know the test result on file for O=C(Nc1cc(Cl)c(Cl)cc1Cl)C(=O)C(C(=O)c1ccc2ccccc2c1)C1OC(=O)c2ccccc21 (centres undefined) .
Outgoing: inactive

Incoming: Please let me know the test result on file for CCOC(=O)C(=N\Nc1cccc(C)c1C)/C(C)=N\NC(N)=S .
Outgoing: inactive

Incoming: Please let me know the test result on file for CCCCCCC(O)(CCCCCC)CCCCCC .
Outgoing: inactive

Incoming: Please let me know the test result on file for O=C(/C(=C\I)c1ccccc1)c1ccccc1 .
Outgoing: inactive

Incoming: Please let me know the test result on file for COc1cc(C(=O)C=[N+]=[N-])c([N+](=O)[O-])c(OC)c1OC .
Outgoing: inactive

Incoming: Please let me know the test result on file for Nc1ccc(SCCCc2c(N)nc(N)nc2N)cc1 .
Outgoing: inactive

Incoming: Please let me know the test result on file for COc1ccc(/C=N/n2c(C)nc3c(sc(=S)n3-c3ccccc3)c2=O)cc1 .
Outgoing: inactive

Incoming: Please let me know the test result on file for CCC1=C(c2ccc(OC(C)=O)cc2)Cc2cc(OC(C)=O)ccc21 .
Outgoing: active

---

# experimentNotes: NCI Yeast Anticancer Drug Screen. Data for the mlh1 rad18 strain (AID 175)
# conditionsUsed: S. cerevisiae mlh1 rad18 strain growth inhibition; at 5.0 µM (retest, dose inferred, filed as 0.5); hits give high values
About 79,000 compounds went through this panel and 15% of them were active in at least one assay; those are over-represented in the sample as a whole.
Below, each of the molecules is paired with its reported growth inhibition value.
# value in %; strip the unit string

Study these solved cases before continuing.
C=C(CN(C)C)C(=O)c1ccc(OC2OC(COC(C)=O)C(OC(C)=O)C(OC(C)=O)C2OC(C)=O)cc1 (centres undefined)	5
CCCCCCCCCCCCCCCCCCSSCCCCCCCCCCCCCCCCCC	-3
CC(C)=CCC/C(=C/CC/C(C)=C/CCc1ccoc1)C(=O)O	2
CC(Nc1ccc(Cl)c(Cl)c1)c1ccncc1 (centres undefined)	-1
O=c1[nH]cc(F)c(=O)n1C1CCCCO1 (centres undefined)	23

Now take the following molecule into account.
Measured growth inhibition of CN(C)Cc1ccc(C(C)(C)C)cc1-c1cc(C(C)(C)C)ccc1CN(C)C : -6

---

# experimentNotes: NCI Yeast Anticancer Drug Screen. Data for the rad50 strain (AID 155);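 note: 0% = growth of vehicle-only cultures of the same strain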
# conditionsUsed: S. cerevisiae rad50 strain growth inhibition; at 50.0 µM (retest, dose inferred, filed as 5.0); hits give high values
About 79,000 compounds went through this panel and 15% of them were active in at least one assay; those are over-represented in the sample as a whole.
Below, each of the molecules is paired with its reported growth inhibition value.
# value in %; strip the unit string

Study these solved cases before continuing.
CC(O)CCCOC(c1ccccc1)(c1ccccc1)c1ccccc1 (stereo unspecified)	97
N#Cc1ncc(Cl)cc1[N+](=O)[O-]	98
O=S(=O)(O)CNc1cc(Cl)cc(Cl)c1	78
COc1ccc2c(c1)[n+]([O-])c(C(N)=O)c(N)[n+]2[O-]	100

Measured growth inhibition of CCCCc1c2c(nc3c1CCCC3O)/C(=C/c1ccccc1)CCC2 (stereo unspecified) : 42

Measured growth inhibition of O=C1CN(/N=C\c2ccc([N+](=O)[O-])o2)C(=O)N1 : 48
